test system: IGROV-1; assay: SRB colorimetric assay of cell growth and viability, IGROV-1; type: cell-based, human; conditions: 48 hours exposure
Where a SMILES comes first, the peptide text is derived from it. Bridges are numbered along the chain shown (N, C = ends). [ ]: non-standard residue; d: D form. The star is where a group is joined. d(aIle) = CC[C@H](C)[C@@H](N)C(=O)O; d(aThr) = C[C@@H](O)[C@@H](N)C(=O)O; Hexanoyl(5-Me) = CC(C)CCCC(=O)*; Orn = NCCC[C@H](N)C(=O)O; Dhb = C/C=C(\N)C(=O)O
OUTCOME MEASURE: LC50 (concentration causing 50% net cell killing) (µM)
Give a bare numeral; the unit µM is implied.

# input molecule: C/C=C1\NC(=O)[C@H](Cc2ccccc2)NC(=O)[C@@H](C(C)C)NC(=O)[C@@H]([C@@H](C)CC)NC(=O)[C@H](NC(=O)[C@H](NC(=O)[C@H](CCCN)NC(=O)[C@H]2CCCN2C(=O)[C@H](NC(=O)[C@@H](NC(=O)[C@@H](NC(=O)[C@H](NC(=O)CCCC(C)C)C(C)C)C(C)C)C(C)C)C(C)C)[C@@H](C)CC)[C@@H](C)OC(=O)[C@H](C(C)C)NC1=O [Compound 6, [Val^12]-KF] ({Hexanoyl(5-Me)}-[dV]VV[dV][dP][Orn][d(aIle)][d(aThr)][d(aIle)][dV]F[Dhb]V; ester 8-C) ; wanted: its LC50 (concentration causing 50% net cell killing) 0.598

# input molecule: C/C=C1\NC(=O)[C@H](Cc2ccccc2)NC(=O)[C@@H](C(C)C)NC(=O)[C@@H]([C@@H](C)CC)NC(=O)[C@H](NC(=O)[C@H](NC(=O)[C@H](CCCN)NC(=O)[C@H]2CCCN2C(=O)[C@H](NC(=O)[C@@H](NC(=O)[C@@H](NC(=O)[C@H](NC(=O)CCCCCCC)C(C)C)[C@@H](C)O)C(C)C)C(C)C)[C@@H](C)CC)[C@@H](C)OC(=O)[C@H](C(C)C)NC1=O [Compound 18, [Oct^14]-KF] ; wanted: its LC50 (concentration causing 50% net cell killing) 1.07

* * *

system: LoVo; assay: SRB colorimetric assay of cell growth and viability, LoVo; format: cell-based, human; conditions: 48 hours exposure, SRB; read-out: LC50 LOVO
Where a SMILES comes first, the peptide text is derived from it. Bridges are numbered along the chain shown (N, C = ends). [ ]: non-standard residue; d: D form. The star is where a group is joined. d(aIle) = CC[C@H](C)[C@@H](N)C(=O)O; d(aThr) = C[C@@H](O)[C@@H](N)C(=O)O; Hexanoyl(5-Me) = CC(C)CCCC(=O)*; Orn = NCCC[C@H](N)C(=O)O; Dhb = C/C=C(\N)C(=O)O
I'd appreciate it if you could supply CC50 values for the items below.

# input molecule: C/C=C1\NC(=O)[C@H](Cc2ccccc2)NC(=O)[C@@H](C(C)C)NC(=O)[C@@H]([C@@H](C)CC)NC(=O)[C@H](NC(=O)[C@H](NC(=O)[C@H](CCCN)NC(=O)[C@H]2CCCN2C(=O)[C@H](NC(=O)[C@@H](NC(=O)[C@H](CCC(N)=O)NC(=O)CCCC(C)C)C(C)C)C(C)C)[C@@H](C)CC)[C@@H](C)OC(=O)[C@H](C(C)C)NC1=O [Compound 58, [Gln^12, noD-Val^13]-KF] ({Hexanoyl(5-Me)}-QV[dV][dP][Orn][d(aIle)][d(aThr)][d(aIle)][dV]F[Dhb]V; ester 7-C) ; wanted: its CC50 ≥ 7110 nM

# input molecule: C/C=C1\NC(=O)[C@@H](Cc2ccccc2)NC(=O)[C@H](C(C)C)NC(=O)[C@H]([C@H](C)CC)NC(=O)[C@@H](NC(=O)[C@@H](NC(=O)[C@@H](CCCN)NC(=O)[C@@H]2CCCN2C(=O)[C@@H](NC(=O)[C@H](NC(=O)[C@H](NC(=O)[C@@H](NC(=O)CCCC(C)C)C(C)C)[C@H](C)O)C(C)C)C(C)C)[C@H](C)CC)[C@H](C)OC(=O)[C@@H](C(C)C)NC1=O ; wanted: its CC50 ≥ 6770 nM

# input molecule: C/C=C1\NC(=O)[C@H](Cc2ccccc2)N(C)C(=O)[C@@H](C(C)C)NC(=O)[C@@H]([C@@H](C)CC)NC(=O)[C@H](NC(=O)[C@H](NC(=O)[C@H](CCCN)NC(=O)[C@H]2CCCN2C(=O)[C@H](NC(=O)[C@@H](NC(=O)[C@@H](NC(=O)[C@H](NC(=O)CC[C@@H](C)CC)C(C)C)[C@@H](C)O)C(C)C)C(C)C)[C@@H](C)CC)[C@@H](C)OC(=O)[C@H](C(C)C)NC1=O [Compound 80, [NMePhe^3, (4S)-MeHex^14]-KF] ; wanted: its CC50 545 nM

# input molecule: C/C=C1\NC(=O)[C@H](Cc2c(F)c(F)c(F)c(F)c2F)NC(=O)[C@@H](C(C)C)NC(=O)[C@@H]([C@@H](C)CC)NC(=O)[C@H](NC(=O)[C@H](NC(=O)[C@H](CCCN)NC(=O)[C@H]2CCCN2C(=O)[C@H](NC(=O)[C@@H](NC(=O)[C@@H](NC(=O)[C@H](NC(=O)CC[C@@H](C)CC)C(C)C)[C@@H](C)O)C(C)C)C(C)C)[C@@H](C)CC)[C@@H](C)OC(=O)[C@H](C(C)C)NC1=O [Compound 71, [Phe(F5)^3, (4S)-MeHex^14]-KF] ; wanted: its CC50 462 nM

# input molecule: C/C=C1\NC(=O)[C@H](Cc2ccccc2)NC(=O)[C@@H](C(C)C)NC(=O)[C@@H]([C@@H](C)CC)NC(=O)[C@H](NC(=O)[C@H](NC(=O)[C@H](CCCC[N+](C)(C)C)NC(=O)[C@H]2CCCN2C(=O)[C@H](NC(=O)[C@@H](NC(=O)[C@@H](NC(=O)[C@H](NC(=O)CC[C@@H](C)CC)C(C)C)[C@@H](C)O)C(C)C)C(C)C)[C@@H](C)CC)[C@@H](C)OC(=O)[C@H](C(C)C)NC1=O [Compound 93, [N^ε(Me)3-Lys^8, (4S)-MeHex^14]-KF] ; wanted: its CC50 537 nM

* * *

system: IGROV-1; experiment: SRB colorimetric assay of cell growth and viability, IGROV-1; format: cell-based, human; settings: 48 hours exposure, SRB
OUTCOME MEASURE: LC50 (concentration causing 50% net cell killing) (nM)
Give a bare numeral; the unit nM is implied.

# input compound: C/C=C1\NC(=O)[C@H](Cc2ccccc2)NC(=O)[C@@H](C(C)C)NC(=O)[C@@H]([C@@H](C)CC)NC(=O)[C@H](NC(=O)[C@H](NC(=O)[C@H](CCCNC(=O)CCCC[C@@H]2SC[C@@H]3NC(=O)N[C@@H]32)NC(=O)[C@H]2CCCN2C(=O)[C@H](NC(=O)[C@@H](NC(=O)[C@@H](NC(=O)[C@H](NC(=O)CCCC(C)C)C(C)C)[C@@H](C)O)C(C)C)C(C)C)[C@@H](C)CC)[C@@H](C)OC(=O)[C@H](C(C)C)NC1=O [Compound 99, [Orn(Biot)^8]-Kahalalide F] ; wanted: its LC50 (concentration causing 50% net cell killing) 2690

* * *

tested on: K-562; experiment: SRB colorimetric assay of cell growth and viability, K-562; type: cell-based, human; conditions: K-562; 48 hours exposure
Where a SMILES comes first, the peptide text is derived from it. Bridges are numbered along the chain shown (N, C = ends). [ ]: non-standard residue; d: D form. The star is where a group is joined. Bip = N[C@@H](Cc1ccc(-c2ccccc2)cc1)C(=O)O; d(aIle) = CC[C@H](C)[C@@H](N)C(=O)O; d(aThr) = C[C@@H](O)[C@@H](N)C(=O)O; Hexanoyl(5-Me) = CC(C)CCCC(=O)*; Orn = NCCC[C@H](N)C(=O)O; Dhb = C/C=C(\N)C(=O)O
OUTCOME MEASURE: TGI K-562 (Molar)
Give a bare numeral; the unit Molar is implied.

# input compound: C/C=C1\NC(=O)[C@H](Cc2ccccc2)NC(=O)[C@@H](C(C)C)NC(=O)[C@@H]([C@@H](C)CC)NC(=O)[C@H](NC(=O)[C@H](NC(=O)[C@H](CCCN)NC(=O)[C@H]2CCCN2C(=O)[C@H](NC(=O)[C@@H](NC(=O)CNC(=O)[C@H](NC(=O)CCCC(C)C)C(C)C)C(C)C)C(C)C)[C@@H](C)CC)[C@@H](C)OC(=O)[C@H](C(C)C)NC1=O [Compound 111, [Gly^12]-KF] ({Hexanoyl(5-Me)}-[dV]GV[dV][dP][Orn][d(aIle)][d(aThr)][d(aIle)][dV]F[Dhb]V; ester 8-C) ; wanted: its TGI K-562 3.66E−07

# input compound: C/C=C1\NC(=O)[C@H](Cc2ccccc2)NC(=O)[C@@H](C(C)C)NC(=O)[C@@H]([C@@H](C)CC)NC(=O)[C@H](NC(=O)[C@H](NC(=O)[C@H](CCCN)NC(=O)[C@H]2CCCN2C(=O)[C@H](NC(=O)[C@@H](NC(=O)[C@H](CC(C)C)NC(=O)[C@H](NC(=O)CCCC(C)C)C(C)C)C(C)C)C(C)C)[C@@H](C)CC)[C@@H](C)OC(=O)[C@H](C(C)C)NC1=O [Compound 113, [Leu^12]-KF] ({Hexanoyl(5-Me)}-[dV]LV[dV][dP][Orn][d(aIle)][d(aThr)][d(aIle)][dV]F[Dhb]V; ester 8-C) ; wanted: its TGI K-562 3.24E−06

# input compound: C/C=C1\NC(=O)[C@H](Cc2ccccc2)NC(=O)[C@@H](C(C)C)NC(=O)[C@@H]([C@@H](C)CC)NC(=O)[C@H](NC(=O)[C@H](NC(=O)[C@H](CCCN)NC(=O)[C@@H]2CCCN2C(=O)[C@H](NC(=O)[C@@H](NC(=O)[C@@H](NC(=O)[C@H](NC(=O)CC[C@@H](C)CC)C(C)C)[C@@H](C)O)C(C)C)C(C)C)[C@@H](C)CC)[C@@H](C)OC(=O)[C@H](C(C)C)NC1=O [Compound 59, [Pro^9, (4S)-MeHex^14]-KF] ; wanted: its TGI K-562 6.76E−06

# input compound: C/C=C1\NC(=O)[C@H](Cc2ccc(-c3ccccc3)cc2)NC(=O)[C@@H](C(C)C)NC(=O)[C@@H]([C@@H](C)CC)NC(=O)[C@H](NC(=O)[C@H](NC(=O)[C@H](CCCN)NC(=O)[C@H]2CCCN2C(=O)[C@H](NC(=O)[C@@H](NC(=O)[C@@H](NC(=O)[C@H](NC(=O)CCCC(C)C)C(C)C)[C@@H](C)O)C(C)C)C(C)C)[C@@H](C)CC)[C@@H](C)OC(=O)[C@H](C(C)C)NC1=O [Compound 86, [Bip^3]-KF] ({Hexanoyl(5-Me)}-[dV]TV[dV][dP][Orn][d(aIle)][d(aThr)][d(aIle)][dV][Bip][Dhb]V; ester 8-C) ; wanted: its TGI K-562 2.32E−06
